- procedureText: Antiproliferative activity against human prostate cancer PPC-1 cell line by sulforhodamine B assay
- Format: functional, cell-based
Measured pIC50, listed per entry.
Recall that pIC50 is obtained by taking minus log10 of the concentration measured in molar.

Field request: pIC50 | item: CCCCCCCCCCCCCCCCCCNC(=O)[C@@H]1CSC(c2ccc(OC)cc2)N1 (stereo not given in full)
5.82

What about CCCCCCCCCCCCCCCCCCNC(=O)[C@@H]1CSC(c2cc(OC)c(OC)c(OC)c2)N1 (stereo not given in full) ?
6.32

What about CCCCCCCCCCCCCCCCCCNC(=O)[C@@H]1CSC(c2ccc(O)cc2)N1 (stereo not given in full) ?
6.09

What about CCCCCCCCCCCCCCCCCCNC(=O)[C@@H]1CSC(c2ccc(N(C)C)cc2)N1 (stereo not given in full) ?
5.96
